Reference source for all entries: patent US9382254B2

Biological target: CFTR G551D mutant (Homo sapiens, UniProt P13569, G551D)
Construct: expressed in transfected cells; host or cells: HEK293 (reverse transfection with plasmid)
Sequence (P13569 whole entry G551D): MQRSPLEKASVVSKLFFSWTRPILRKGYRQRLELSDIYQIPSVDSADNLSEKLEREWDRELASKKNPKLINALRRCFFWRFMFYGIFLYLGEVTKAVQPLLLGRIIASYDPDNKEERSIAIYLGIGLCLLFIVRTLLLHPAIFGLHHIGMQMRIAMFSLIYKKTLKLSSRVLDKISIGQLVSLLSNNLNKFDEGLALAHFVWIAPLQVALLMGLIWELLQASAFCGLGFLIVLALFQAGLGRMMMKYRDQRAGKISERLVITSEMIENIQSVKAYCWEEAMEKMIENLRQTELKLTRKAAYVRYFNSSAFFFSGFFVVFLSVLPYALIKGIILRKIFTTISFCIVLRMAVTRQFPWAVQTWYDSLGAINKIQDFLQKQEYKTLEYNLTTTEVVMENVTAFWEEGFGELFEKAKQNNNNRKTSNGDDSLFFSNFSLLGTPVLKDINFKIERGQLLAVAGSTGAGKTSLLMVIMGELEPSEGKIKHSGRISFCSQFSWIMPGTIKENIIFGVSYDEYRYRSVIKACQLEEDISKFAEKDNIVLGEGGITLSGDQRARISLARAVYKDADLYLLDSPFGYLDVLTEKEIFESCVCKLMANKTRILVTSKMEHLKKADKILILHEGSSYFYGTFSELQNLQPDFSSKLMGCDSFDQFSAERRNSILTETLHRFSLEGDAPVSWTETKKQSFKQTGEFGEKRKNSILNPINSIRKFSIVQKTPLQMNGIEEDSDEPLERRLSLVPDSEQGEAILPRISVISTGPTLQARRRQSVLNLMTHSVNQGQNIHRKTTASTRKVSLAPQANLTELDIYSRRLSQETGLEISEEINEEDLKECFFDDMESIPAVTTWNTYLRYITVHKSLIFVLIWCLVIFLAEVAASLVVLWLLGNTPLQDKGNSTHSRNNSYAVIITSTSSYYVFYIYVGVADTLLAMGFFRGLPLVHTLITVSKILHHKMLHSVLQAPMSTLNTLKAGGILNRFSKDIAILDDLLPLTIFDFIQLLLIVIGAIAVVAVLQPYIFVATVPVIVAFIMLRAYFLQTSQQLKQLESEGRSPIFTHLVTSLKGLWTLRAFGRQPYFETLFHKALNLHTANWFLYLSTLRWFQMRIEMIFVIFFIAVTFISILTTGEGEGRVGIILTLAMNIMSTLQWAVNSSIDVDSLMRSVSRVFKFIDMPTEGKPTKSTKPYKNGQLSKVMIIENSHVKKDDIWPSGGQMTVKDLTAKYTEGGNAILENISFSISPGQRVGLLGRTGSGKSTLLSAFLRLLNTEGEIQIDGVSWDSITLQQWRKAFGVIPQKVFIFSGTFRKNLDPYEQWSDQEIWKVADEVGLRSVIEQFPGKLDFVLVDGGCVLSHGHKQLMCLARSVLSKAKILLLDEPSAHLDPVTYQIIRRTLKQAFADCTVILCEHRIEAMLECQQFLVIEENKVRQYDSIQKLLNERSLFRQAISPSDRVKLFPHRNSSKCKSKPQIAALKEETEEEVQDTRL
Assay: YFP-halide influx assay for the CFTR-G551D mutation
Assay type: cell-based
Conditions: HEK293 cells, forskolin 10.67 μM
Method: The YFP halide influx assay measures the functionality of the cystic fibrosis Transmembrane Conductance regulator (CFTR) channels. […] It makes use of the observation that the yellow fluorescent protein (YFP) variant YFP H148Q, I152L, […] has its fluorescence substantially quenched by halide ions like Cl^− and I^−. […] The I^−-induced quenching of fluorescence is recorded immediately after injection of I^− for 7 seconds. […]
pEC50: −log10 of the molar value.
parameter-measured: pEC50

CC(C)CC(O)C(=O)Nc1sc(S(=O)(=O)c2ccc(F)cc2)cc1C(N)=O (stereo not shown) | 5.85
COc1ccc(S(=O)(=O)c2cc(C(N)=O)c(NC(=O)C(C)(C)O)s2)c(OC(F)F)c1 | 6.10

1 = CN(c1ccc(F)cc1)S(=O)(=O)c1cc(C(N)=O)c(NC(=O)C(C)(C)O)s1
2 = CC(C)(O)C(=O)Nc1sc(S(=O)(=O)c2ccc(C#N)cc2)cc1C(N)=O
Decide: 1 or 2 , by lowest recorded pEC50. Refer to your chosen item by its label in the answer.
1
(1: 5.48, 2: 5.88)

----------
Target: CFTR ΔF508 mutant (Homo sapiens, UniProt P13569, DEL508-508)
Construct: expressed in transfected cells; host or cells: CFBE41o- (adenoviral transduction)
Sequence (P13569 with tags, fused parts or gaps DEL508-508): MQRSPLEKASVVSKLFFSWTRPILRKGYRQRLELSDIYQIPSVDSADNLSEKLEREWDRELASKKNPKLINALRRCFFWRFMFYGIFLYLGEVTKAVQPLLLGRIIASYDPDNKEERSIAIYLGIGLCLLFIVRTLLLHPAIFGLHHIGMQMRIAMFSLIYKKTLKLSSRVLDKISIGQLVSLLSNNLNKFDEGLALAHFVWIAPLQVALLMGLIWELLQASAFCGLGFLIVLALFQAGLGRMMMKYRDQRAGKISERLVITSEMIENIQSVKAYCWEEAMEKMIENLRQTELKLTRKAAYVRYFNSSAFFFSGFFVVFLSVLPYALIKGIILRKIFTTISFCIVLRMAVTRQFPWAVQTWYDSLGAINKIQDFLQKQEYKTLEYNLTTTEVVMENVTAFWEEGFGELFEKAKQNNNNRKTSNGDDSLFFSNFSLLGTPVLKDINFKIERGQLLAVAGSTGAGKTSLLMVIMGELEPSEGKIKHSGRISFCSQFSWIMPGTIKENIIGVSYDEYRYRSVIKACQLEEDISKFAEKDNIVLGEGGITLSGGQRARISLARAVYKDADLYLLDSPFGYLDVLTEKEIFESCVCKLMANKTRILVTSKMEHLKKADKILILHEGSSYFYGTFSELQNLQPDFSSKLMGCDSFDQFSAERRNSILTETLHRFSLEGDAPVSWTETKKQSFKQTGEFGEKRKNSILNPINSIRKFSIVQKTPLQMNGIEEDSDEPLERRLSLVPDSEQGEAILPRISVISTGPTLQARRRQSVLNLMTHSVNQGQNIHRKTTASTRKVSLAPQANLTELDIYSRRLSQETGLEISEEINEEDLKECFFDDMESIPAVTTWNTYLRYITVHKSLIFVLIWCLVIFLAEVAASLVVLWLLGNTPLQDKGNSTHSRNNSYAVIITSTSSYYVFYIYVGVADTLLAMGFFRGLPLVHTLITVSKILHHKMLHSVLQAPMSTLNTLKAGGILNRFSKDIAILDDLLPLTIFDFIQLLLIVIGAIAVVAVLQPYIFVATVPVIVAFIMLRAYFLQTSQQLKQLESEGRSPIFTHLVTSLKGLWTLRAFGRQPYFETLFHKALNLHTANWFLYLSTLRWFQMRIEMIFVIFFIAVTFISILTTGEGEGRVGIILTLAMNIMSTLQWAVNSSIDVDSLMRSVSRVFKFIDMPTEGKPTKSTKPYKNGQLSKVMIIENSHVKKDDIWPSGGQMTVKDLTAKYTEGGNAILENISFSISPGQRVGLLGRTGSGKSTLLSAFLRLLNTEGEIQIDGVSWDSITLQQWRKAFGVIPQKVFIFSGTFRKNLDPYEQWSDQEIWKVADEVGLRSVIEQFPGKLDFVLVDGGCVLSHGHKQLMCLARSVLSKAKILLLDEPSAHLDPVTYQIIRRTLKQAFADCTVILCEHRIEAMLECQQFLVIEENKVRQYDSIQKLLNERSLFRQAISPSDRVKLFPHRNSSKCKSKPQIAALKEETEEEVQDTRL
Experiment: YFP-halide influx assay for the CFTR-ΔF508 mutation (384 well, FDSS/μCell)
Format: cell-based
Conditions: CFBE41o- cells, CFTR-ΔF508, 1×D-PBS, fluorescence after 36 seconds
pEC50: −log10 of the molar value.
parameter-measured: pEC50

CN(CC(C)(C)C)S(=O)(=O)c1cc(C(N)=O)c(NC(=O)c2cc[nH]n2)s1 | 7.68
CC(C)(C)[C@H](O)C(=O)Nc1sc(S(=O)(=O)c2ccc(C(F)(F)F)cc2)cc1C(N)=O | 7.52
CC(C)(O)C(=O)Nc1sc(S(=O)(=O)c2cc(C(F)(F)F)ncc2Cl)cc1C(N)=O | 7.36

1 = CC(C)(O)C(=O)Nc1sc(S(=O)(=O)c2ccc(C(C)(C)C)cn2)cc1C(N)=O
2 = CC(C)(O)C(=O)Nc1sc(S(=O)(=O)c2ccc(F)cc2)cc1C(N)=O
Smaller pEC50 value, 1 vs 2 ? Indicate which entry you chose by stating its label.
1
(1: 7.31, 2: 7.58)

----------
Molecular target: CFTR G551D mutant (Homo sapiens, UniProt P13569, G551D)
Construct: expressed in transfected cells; host or cells: HEK293 (reverse transfection with plasmid)
Test: YFP-halide influx assay for the CFTR-G551D mutation
Assay type: cell-based
Conditions: HEK293 cells, forskolin 10.67 μM
pEC50: −log10 of the molar value.
parameter-measured: pEC50

COCCOC(C)C(=O)Nc1sc(S(=O)(=O)c2ccc(F)cc2)cc1C(N)=O (stereo not drawn) [Compound 276] | 5.48
NC(=O)c1cc(S(=O)(=O)c2ccc(OC(F)(F)F)cc2)sc1NC(=O)C1CCOC1 (stereo not drawn) [Compound 443] | 5.48
COc1cc(C)cc(S(=O)(=O)c2cc(C(N)=O)c(NC(=O)C(C)(C)O)s2)c1 [Compound 416] | 6.11
C[C@H](O)C(=O)Nc1sc(S(=O)(=O)c2ccc(F)cc2C(F)(F)F)cc1C(N)=O (single isomer, unassigned; enantiomer 1) [Compound 348] | 5.59
C[C@@H](O)C(=O)Nc1sc(S(=O)(=O)c2ccc(OC(F)(F)F)cc2)cc1C(N)=O [Compound 332] | 6.28
CC(C)(O)C(=O)Nc1sc(S(=O)(=O)c2cc(F)ccc2Cl)cc1C(N)=O [Compound 337] | 6.06
CC(O)C(=O)Nc1sc(S(=O)(=O)c2ccc(OC(F)(F)F)cc2)cc1C(N)=O (stereo not drawn) [Compound 318] | 6.14

1 = CC(O)C(=O)Nc1sc(S(=O)(=O)c2ccccc2Cl)cc1C(N)=O (stereo not drawn) [Compound 321]
2 = CC(C)(O)C(=O)Nc1sc(S(=O)(=O)c2ccc(C(F)(F)F)nc2)cc1C(N)=O [Compound 389]
Higher pEC50 between 1 and 2 ? # respond with the chosen item's label
2
